The reported measurements were obtained from ChEMBL document CHEMBL6153133.

System: Calcium-activated potassium channel subunit alpha-1 (Homo sapiens), Q12791 [UNDEFINED MUTATION]
Sequence (Q12791 whole entry, looked up, stated change not applied): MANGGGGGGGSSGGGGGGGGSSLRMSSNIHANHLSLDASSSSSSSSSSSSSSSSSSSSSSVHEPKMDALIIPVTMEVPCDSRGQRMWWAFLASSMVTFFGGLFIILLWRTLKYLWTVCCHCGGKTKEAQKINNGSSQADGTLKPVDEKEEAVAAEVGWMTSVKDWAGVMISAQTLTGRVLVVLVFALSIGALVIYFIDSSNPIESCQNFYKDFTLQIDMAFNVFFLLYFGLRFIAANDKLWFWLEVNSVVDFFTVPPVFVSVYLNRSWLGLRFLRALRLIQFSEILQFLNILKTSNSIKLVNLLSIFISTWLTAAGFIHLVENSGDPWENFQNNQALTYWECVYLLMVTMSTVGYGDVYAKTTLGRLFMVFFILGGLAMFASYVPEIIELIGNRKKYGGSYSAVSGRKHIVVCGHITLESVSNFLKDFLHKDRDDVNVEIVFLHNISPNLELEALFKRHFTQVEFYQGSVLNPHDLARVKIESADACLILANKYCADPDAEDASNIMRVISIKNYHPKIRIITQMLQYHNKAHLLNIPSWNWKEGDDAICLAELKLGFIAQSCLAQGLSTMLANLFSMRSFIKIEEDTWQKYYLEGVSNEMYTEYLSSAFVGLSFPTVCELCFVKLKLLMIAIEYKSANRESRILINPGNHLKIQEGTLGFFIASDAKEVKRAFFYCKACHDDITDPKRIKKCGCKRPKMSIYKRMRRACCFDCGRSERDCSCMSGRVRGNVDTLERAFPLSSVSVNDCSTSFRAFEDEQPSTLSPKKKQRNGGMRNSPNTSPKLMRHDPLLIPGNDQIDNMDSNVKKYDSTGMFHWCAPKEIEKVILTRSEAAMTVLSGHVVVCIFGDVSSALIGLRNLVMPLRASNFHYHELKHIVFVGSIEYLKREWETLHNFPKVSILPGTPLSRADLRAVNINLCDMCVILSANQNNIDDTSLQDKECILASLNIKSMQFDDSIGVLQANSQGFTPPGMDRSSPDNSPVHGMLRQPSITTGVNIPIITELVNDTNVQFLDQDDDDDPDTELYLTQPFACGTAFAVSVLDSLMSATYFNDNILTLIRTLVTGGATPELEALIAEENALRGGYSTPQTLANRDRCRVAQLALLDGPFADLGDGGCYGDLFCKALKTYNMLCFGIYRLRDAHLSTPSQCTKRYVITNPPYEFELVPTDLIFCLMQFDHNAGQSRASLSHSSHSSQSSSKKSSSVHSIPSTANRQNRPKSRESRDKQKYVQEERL
Assay: Activation of hyperactive human BKca channel G803D/N806K mutant transfected in human AD-293 cells assessed as maximum relative fluorescence value at 5 uM preincubated for 15 mins followed by Tl+ stimulus buffer addition and measured after 80 sec by Flexstation3 multimode microplate reader analysis relative to control
Format: cell-based
Conditions: time 980.0 sec
metric.name: Activity (%)
One number for each entry, in %.

See these solved cases before continuing.
{"columns": ["sample.smiles", "metric.name", "result"],
 "data": [
  ["Oc1ccc(Oc2c(F)c(F)c(Cl)c(F)c2F)cc1", "Activity", 6.1],
  ["O=[N+]([O-])c1cc(O)ccc1Oc1c(F)c(F)c(C(F)(F)F)c(F)c1F", "Activity", 0.1],
  ["Oc1ccc(Oc2ccc(Cl)cc2)c(O)c1", "Activity", 1.2],
  ["Nc1cc(O)ccc1Oc1c(F)c(F)c(C(F)(F)F)c(F)c1F", "Activity", 4.7]
]}

Would you be so kind as to report Activity for each listed record?
1. Nc1ccc(Oc2c(F)c(F)c(C(F)(F)F)c(F)c2F)c(CO)c1
2. CCCNc1ccc(Oc2c(F)c(F)c(C(F)(F)F)c(F)c2F)c(O)c1
3. Fc1c(F)c(C(F)(F)F)c(F)c(F)c1Oc1ccc2[nH]cnc2c1
4. Oc1ccc(Oc2c(F)c(F)c(Cl)c(F)c2F)cc1O
5. O=[N+]([O-])c1ccc(Oc2c(F)c(F)c(C(F)(F)F)c(F)c2F)c(O)c1
6. Fc1c(F)c(C(F)(F)F)c(F)c(F)c1Oc1ccc2[nH]ncc2c1
7. Oc1ccc(Oc2ccc(F)c(C(F)(F)F)c2)c(O)c1

Outgoing:
1. 37.9
2. 28.1
3. 1
4. 4
5. 19.3
6. 1
7. 19.8

---

Exercise: for every item that follows, state its recorded log10 EC50.
Molecular target: Calcium-activated potassium channel subunit alpha-1 (Homo sapiens, UniProt Q12791, G803D/N806K)
Assay: Activation of hyperactive human BKca channel G803D/N806K mutant transfected in human AD-293 cells incubated for 15 mins by Flexstation3 multimode microplate reader analysis
Format: cell-based
Please interpret these as log10 of EC50 where EC50 is in µM.

See these solved cases before continuing.
{"columns": ["sample.smiles", "log10 EC50"],
 "data": [
  ["Nc1ccc(Oc2c(F)c(F)c(C(F)(F)F)c(F)c2F)c(F)c1", 0.14],
  ["Oc1cc(NCCCCCN2CCOCC2)ccc1Oc1c(F)c(F)c(C(F)(F)F)c(F)c1F", 0.45],
  ["Oc1cc(NCCCCN2CCOCC2)ccc1Oc1c(F)c(F)c(C(F)(F)F)c(F)c1F", 0.96],
  ["CNc1ccc(Oc2c(F)c(F)c(C(F)(F)F)c(F)c2F)c(O)c1", -0.38],
  ["Oc1ccc(Oc2c(F)c(F)c(Cl)c(F)c2F)c(O)c1", 0.20]
]}

Would you be so kind as to report log10 EC50 for each listed record?
1. COc1cc(N)ccc1Oc1c(F)c(F)c(C(F)(F)F)c(F)c1F
2. Nc1ccc(Oc2c(F)c(F)c(C(F)(F)F)c(F)c2F)c(O)c1
3. Oc1ccc(Oc2c(F)c(F)c(C(F)(F)F)c(F)c2F)c(O)c1

Outgoing:
[0.08, -0.92, -0.17]

---

Exercise: for every item that follows, state its recorded Activity.
Test system: Calcium-activated potassium channel subunit alpha-1 (Homo sapiens), Q12791 [UNDEFINED MUTATION]
Test: Activation of hyperactive human BKca channel G803D/N806K mutant transfected in human AD-293 cells assessed as maximum relative fluorescence value at 5 uM preincubated for 15 mins followed by Tl+ stimulus buffer addition and measured after 80 sec by Flexstation3 multimode microplate reader analysis relative to control
Assay type: cell-based
Settings: time 980.0 sec
I'd appreciate it if you wrote the number followed by its unit.

See these solved cases before continuing.
{"columns": ["sample.smiles", "Activity"],
 "data": [
  ["N#Cc1cc(N)ccc1Oc1c(F)c(F)c(C(F)(F)F)c(F)c1F", "8.1%"],
  ["Nc1ccc(Oc2c(F)c(F)c(C(F)(F)F)c(F)c2F)c(OC(F)(F)F)c1", "33%"],
  ["Oc1cc(NCCCCN2CCOCC2)ccc1Oc1c(F)c(F)c(C(F)(F)F)c(F)c1F", "9.3%"]
]}

Would you be so kind as to report Activity for each listed record?
1. FC(F)(F)c1cc(NC(=S)Nc2ccc(Br)cc2-c2nnn[nH]2)cc(C(F)(F)F)c1
2. Oc1cccc(Oc2c(F)c(F)c(Cl)c(F)c2F)c1
3. Oc1ccc(Oc2cccc(C(F)(F)F)c2)c(O)c1
4. Oc1cc(O)cc(Oc2c(F)c(F)c(Cl)c(F)c2F)c1

Outgoing:
14.4%
5%
5.5%
11.8%

---

Tested on: Calcium-activated potassium channel subunit alpha-1 (Homo sapiens), Q12791 [UNDEFINED MUTATION]
Assay: Activation of hyperactive human BKca channel G803D/N806K mutant transfected in human AD-293 cells assessed as maximum relative fluorescence value at 5 uM preincubated for 15 mins followed by Tl+ stimulus buffer addition and measured after 80 sec by Flexstation3 multimode microplate reader analysis relative to control
Type: cell-based
Conditions: time 980.0 sec
Exercise: for every item that follows, state its recorded Activity.
I'd appreciate it if you wrote the number followed by its unit.

See these solved cases before continuing.
{"columns": ["sample.smiles", "Activity"],
 "data": [
  ["Nc1ccc(Oc2c(F)c(F)c(C(F)(F)F)c(F)c2F)c(C(F)(F)F)c1", "38%"],
  ["Oc1ccc(Oc2ccc(Cl)c(F)c2)c(O)c1", "8.1%"],
  ["O=C(O)c1ccc(Cl)c2c1[nH]c1c3ccc(C(F)(F)F)cc3oc12", "34.9%"],
  ["Oc1ccccc1Oc1c(F)c(F)c(Cl)c(F)c1F", "-2.7%"]
]}

Now consider the entry below.
Incoming: Which Activity value is on record for NCCCCNc1ccc(Oc2c(F)c(F)c(C(F)(F)F)c(F)c2F)c(O)c1 ?
Outgoing: 18%
